Test system: Pyricularia grisea
ASSAY REMARKS: Fungicidal activity against Magnaporthe grisea in rice plant assessed as prevention from rice blast disease measured as lesions under greenhouse at > 200 ppm for 8 days by foliar spray compound treated before inoculation
Format: functional
TEST READOUT: Activity

- CC(C)C(C)NC(=O)C(C#N)C(C)(C)C (centres undefined): <=10%
- CC(NC(=O)C(F)C(C)(C)C)c1ccc(Cl)cc1 (centres undefined): <=10%
- CC(NC(=O)C(C#N)C(C)(C)C)c1ccc(Cl)cn1 (centres undefined): <=10%
- CC(NC(=O)C1(C#N)CC1(C)C)c1ccc(Cl)cc1 (centres undefined): <=10%
- COC(NC(=O)C(C#N)C(C)(C)C)c1ccc(Cl)cc1 (centres undefined): <=10%

Kindly consider the entry below.
Input: Query (molecule): CC(C)NC(=O)C(C#N)C(C)(C)C (centres undefined) ; field requested: Activity
Output: <=10%

###

Test system: Pyricularia grisea
ASSAY REMARKS: Fungicidal activity against Magnaporthe grisea in rice plant assessed as rice blast disease measured as damage under greenhouse at 6.3 ppm for 8 days by foliar spray compound treated before inoculation
Assay type: functional
Parameter Activity: see the listing below.
Provide only the numeric value, understood in %.

Reference set, count: 2
• C[C@H](NC(=O)[C@@H](C#N)C(C)(C)C)c1ccc(Cl)cc1Cl = 0
• C[C@@H](NC(=O)[C@@H](C#N)C(C)(C)C)c1ccc(Cl)cc1Cl = 3

Input: Query (compound): `C[C@H](NC(=O)[C@H](C#N)C(C)(C)C)c1ccc(Cl)cc1Cl` ; field requested: Activity
Output: 0

Input: Query (compound): C[C@@H](NC(=O)C(C#N)C(C)(C)C)c1ccc(Cl)cc1Cl (mixture of isomers) ; field requested: Activity
Output: 4

Input: Query (compound): O=C1OCc2c(Cl)c(Cl)c(Cl)c(Cl)c21 [4,5,6,7-TETRACHLOROPHTHALIDE] ; field requested: Activity
Output: 1

Input: Query (compound): `C[C@@H](NC(=O)[C@H](C#N)C(C)(C)C)c1ccc(Cl)cc1Cl` ; field requested: Activity
Output: 4
